Value source: the supplement of paper PMC10567573

B1: EPB41L3 (parent)
chain: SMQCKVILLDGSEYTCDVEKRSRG

Variants of: B1
Assay Comment: protein stability index of a GFP-peptide fusion (GPS, HEK-293T) (PSI 1-6); higher = more stable;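 also: lentivirally expressed fusions sorted by FACS into six bins by GFP to DsRed ratio, PSI derived from sequencing read proportions per bin multiplied by bin number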
Cond: c terminus: a fixed tail appended
Property Label: protein stability index

Input Sequence: SMQCKVILADGSEYTCDVEKRSRG [L9A]
Number: 3.6
--
Input Sequence: SMQCKVILLDGIEYTCDVEKRSRG [S12I]
Number: 2.39
--
Input Sequence: SMQCKVILLDGSEYTEDVEKRSRG [C16E]
Number: 3.52
--
Input Sequence: SMQKKVILLDGSEYTCDVEKRSRG [C4K]
Number: 4.37
--
Input Sequence: SMQCKVILMDGSEYTCDVEKRSRG [L9M]
Number: 3.2
--
Input Sequence: SMQCTVILLDGSEYTCDVEKRSRG [K5T]
Number: 2.54
--
Input Sequence: SMQCKFILLDGSEYTCDVEKRSRG [V6F]
Number: 2.76
--
Input Sequence: SMQCKVILLDGSEYTNDVEKRSRG [C16N]
Number: 2.84
--
Input Sequence: SMQFKVILLDGSEYTCDVEKRSRG [C4F]
Number: 2.03
--
Input Sequence: SMQCKVHLLDGSEYTCDVEKRSRG [I7H]
Number: 3.03
--
Input Sequence: SMQCKVILLDGSEYTCDVEKRGRG [S22G]
Number: 3.02
--
Input Sequence: SMQCKVILLDGSEYTCDPEKRSRG [V18P]
Number: 3.57
--
Input Sequence: SMQCKVILLDGSENTCDVEKRSRG [Y14N]
Number: 3.7
--
Input Sequence: SMQCKVINLDGSEYTCDVEKRSRG [L8N]
Number: 4.24
--
Input Sequence: SMQCKVILLDGSEYTCDVEKRSNG [R23N]
Number: 2.52
--
Input Sequence: SMQCKVIHLDGSEYTCDVEKRSRG [L8H]
Number: 3.66
--
Input Sequence: SMQCKVIMLDGSEYTCDVEKRSRG [L8M]
Number: 3.13
--
Input Sequence: SMQCKVILLDGSEYTCDVQKRSRG [E19Q]
Number: 2.5
--
Input Sequence: SMQCKVILLDGSEYTCDVEKPSRG [R21P]
Number: 3.06
--
Input Sequence: SMQCKVILLDGSEYTCDVEKRPRG [S22P]
Number: 2.56
--
Input Sequence: SMQCKVISLDGSEYTCDVEKRSRG [L8S]
Number: 3.79
--
Input Sequence: EMQCKVILLDGSEYTCDVEKRSRG [S1E]
Number: 3.32
